- EXPERIMENT_DESCRIPTION: Bench scale groundwater treatment with peroxide-coated ozone nanobubbles (1260 ppmV O3, 10% H2O2)
- Type: physicochemical
- PARTICULARS: 1260 ppmV O3, 10% H2O2, 1 HR
Please respond with y when measured PFC concentration in groundwater, 1 HR is strictly beneath 30, and with n in all other cases.

Please indicate whether the reported PFC concentration in groundwater, 1 HR of O=S(=O)(O)C(F)(F)C(F)(F)C(F)(F)C(F)(F)C(F)(F)C(F)(F)C(F)(F)C(F)(F)F [PFOS, perfluorooctane sulfonate] is strictly below 30. n

Please indicate whether the reported PFC concentration in groundwater, 1 HR of O=C(O)C(F)(F)C(F)(F)C(F)(F)C(F)(F)F [PFPeA, perfluoropentanoic acid] is strictly below 30. y

Please indicate whether the reported PFC concentration in groundwater, 1 HR of O=C(O)C(F)(F)C(F)(F)C(F)(F)C(F)(F)C(F)(F)C(F)(F)C(F)(F)F [PFOA, perfluorooctanoic acid] is strictly below 30. y

Please indicate whether the reported PFC concentration in groundwater, 1 HR of O=S(=O)(O)C(F)(F)C(F)(F)C(F)(F)C(F)(F)C(F)(F)C(F)(F)F [PFHxS, perfluorohexane sulfonate] is strictly below 30. n

Please indicate whether the reported PFC concentration in groundwater, 1 HR of O=C(O)C(F)(F)C(F)(F)C(F)(F)C(F)(F)C(F)(F)F [PFHxA, perfluorohexanoic acid] is strictly below 30. n
